Target: T1, recombinant human soluble gpNMB (recombinant human gpNMB-FLAG-His) (human, UniProt Q14956 23-498)
T1 sequence: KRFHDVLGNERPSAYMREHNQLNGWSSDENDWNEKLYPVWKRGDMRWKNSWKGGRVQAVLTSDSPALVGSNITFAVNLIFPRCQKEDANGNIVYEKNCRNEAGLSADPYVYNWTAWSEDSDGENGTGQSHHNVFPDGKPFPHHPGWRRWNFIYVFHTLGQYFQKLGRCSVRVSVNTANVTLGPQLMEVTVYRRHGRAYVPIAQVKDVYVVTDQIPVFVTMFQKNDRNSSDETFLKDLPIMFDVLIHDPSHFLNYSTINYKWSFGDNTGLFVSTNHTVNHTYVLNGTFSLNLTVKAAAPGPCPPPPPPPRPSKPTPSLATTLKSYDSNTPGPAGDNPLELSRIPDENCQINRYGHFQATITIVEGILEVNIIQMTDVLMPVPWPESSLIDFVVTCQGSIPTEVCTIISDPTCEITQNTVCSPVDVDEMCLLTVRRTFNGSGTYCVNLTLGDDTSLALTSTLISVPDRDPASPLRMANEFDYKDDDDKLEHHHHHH
Test: antigen ELISA, vs hGPN18-2_H2L3
TEST READOUT: Relative binding activity
Give bare numbers.

These solved cases illustrate the format of a correct answer.
- BINDER: "hGPN18-2_H2L3 VH Y102A (antibody, V domains shown) VH: QVQLVQSGPGLVQPTQTLTLTCSFSGFSLSTSVMGVGWIRQPSGKGLEWLADIWWDDDKDYNPSLKSRLTISKDTSKNQVVLTMTNMDTVDTATYYCARTYASNYEYYGMDYWGQGTLVTVSS VL: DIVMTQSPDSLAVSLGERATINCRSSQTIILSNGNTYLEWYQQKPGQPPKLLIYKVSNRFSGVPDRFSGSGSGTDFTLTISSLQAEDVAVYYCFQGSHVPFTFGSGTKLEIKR"
  TEST READOUT: "Relative binding activity"
  REPORTED VALUE: 0.07
- BINDER: "hGPN18-2_H2L3 VH Y107A (antibody, V domains shown) VH: QVQLVQSGPGLVQPTQTLTLTCSFSGFSLSTSVMGVGWIRQPSGKGLEWLADIWWDDDKDYNPSLKSRLTISKDTSKNQVVLTMTNMDTVDTATYYCARTYYSNYEAYGMDYWGQGTLVTVSS VL: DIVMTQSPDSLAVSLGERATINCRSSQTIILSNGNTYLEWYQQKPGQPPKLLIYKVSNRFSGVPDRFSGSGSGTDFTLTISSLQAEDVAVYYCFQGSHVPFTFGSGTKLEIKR"
  TEST READOUT: "Relative binding activity"
  REPORTED VALUE: 0.06
- BINDER: "hGPN18-2_H2L3 VH N62A (antibody, V domains shown) VH: QVQLVQSGPGLVQPTQTLTLTCSFSGFSLSTSVMGVGWIRQPSGKGLEWLADIWWDDDKDYAPSLKSRLTISKDTSKNQVVLTMTNMDTVDTATYYCARTYYSNYEYYGMDYWGQGTLVTVSS VL: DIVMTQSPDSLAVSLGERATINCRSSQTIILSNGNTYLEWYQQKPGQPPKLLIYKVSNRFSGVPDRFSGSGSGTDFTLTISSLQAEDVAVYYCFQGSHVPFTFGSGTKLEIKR"
  TEST READOUT: "Relative binding activity"
  REPORTED VALUE: 0.97
- BINDER: "hGPN18-2_H2L3 VH R99A (antibody, V domains shown) VH: QVQLVQSGPGLVQPTQTLTLTCSFSGFSLSTSVMGVGWIRQPSGKGLEWLADIWWDDDKDYNPSLKSRLTISKDTSKNQVVLTMTNMDTVDTATYYCAATYYSNYEYYGMDYWGQGTLVTVSS VL: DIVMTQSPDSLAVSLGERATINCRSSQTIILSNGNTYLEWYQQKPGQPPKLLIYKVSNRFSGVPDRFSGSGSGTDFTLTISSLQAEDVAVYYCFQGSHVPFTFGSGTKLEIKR"
  TEST READOUT: "Relative binding activity"
  REPORTED VALUE: 0.37

Please turn your attention to the following entry.
Any idea what its Relative binding activity is? The binder is hGPN18-2_H2L3 VH K66A (antibody, V domains shown) VH: QVQLVQSGPGLVQPTQTLTLTCSFSGFSLSTSVMGVGWIRQPSGKGLEWLADIWWDDDKDYNPSLASRLTISKDTSKNQVVLTMTNMDTVDTATYYCARTYYSNYEYYGMDYWGQGTLVTVSS VL: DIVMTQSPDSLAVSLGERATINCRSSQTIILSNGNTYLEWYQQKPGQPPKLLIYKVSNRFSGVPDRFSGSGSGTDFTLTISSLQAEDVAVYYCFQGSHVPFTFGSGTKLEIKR 0.96
